Origin of the recorded values: ChEMBL document CHEMBL1201862

# Tested on: SK-MEL-2
# Test Summary: NCI tumour cell line growth inhibition, 48 h
Active and inactive are the calls of the source. No stated cut-off is given here; in the data, active = GI50 up to about 1.1 µM and inactive = higher.
Endpoint Label: GI50

[
  {
    "Compound": "CCCCCC1=CC(=O)C1(Cl)Cl",
    "GI50": "20.4 µM (inactive)"
  },
  {
    "Compound": "COc1ccc(Cc2nc3ccccc3s2)cc1OC",
    "GI50": "20.3 µM (inactive)"
  }
]

For every item in the list below, what is its measured GI50?
1. Cc1ccc(NC(=O)CC2C(=O)Nc3ccccc3S2(=O)=O)cc1C (configuration not stated)
2. c1cc2nnc1SCCCSc1ccc(nn1)SCCCS2
3. CCOC(=O)c1cc(-c2ccn(C(C)=O)c2)c(-c2cc(C)co2)[nH]1
4. CCN(CC)CCCNC(=O)c1cc(-c2nccn2C)nc2ccccc12
5. Brc1ccc(-c2cc3c(cc2C2SCCS2)OCO3)cc1

["> 100 µM (inactive)", "24.7 µM (inactive)", "> 100 µM (inactive)", "> 100 µM (inactive)", "28.8 µM (inactive)"]
